# runDescription: Natriuretic polypeptide receptor (hNpr1) antagonism - Pilot counterscreen GloSensor control cell line (AID 1347045); also: potency is read from the fitted curve at half-maximal effect
# assaySetup: HEK293 cGMP GloSensor cells, SNP-stimulated luminescence, 20 min; series mostly up to 38.3 µM
Results filed as inconclusive are left out. The source made the active and inactive calls. Calls follow the shape of the full dose curve.
measuredProperty: Potency

The examples below pair each entry with its known result.
Supply measured Potency of `COc1cccc2c1[C@@H]1CN(CCCCn3c(=O)[nH]c4c(sc5ncc(-c6ccccc6)nc54)c3=O)C[C@@H]1CO2` in your reply.
inactive

Supply measured Potency of `Brc1ccc([C@H]2CN3CCSC3=N2)cc1` in your reply.
inactive

Supply measured Potency of `O=C1NC(c2cccc([N+](=O)[O-])c2)=CCN1c1ccccc1O` in your reply.
inactive

Supply measured Potency of `CC(C)N(CCC(=O)c1ccc2ccccc2c1)Cc1ccccc1` in your reply.
13.1 µM (active)

Now examine the next entry.
Supply measured Potency of `Cc1nn(-c2ccccc2)c(C)c1/C=N/N1CCN(Cc2ccccc2)CC1` in your reply.
inactive

----------
# subjectOfTest: Cytochrome P450 2C9 (Homo sapiens)
# runDescription: Cytochrome P450 family 2 subfamily C member 9 (CYP2C9) small molecule antagonists: luciferase biochemical (cell-free) qHTS assay (AID 1645842); also: nearly all actives have a fitted effect of over 55% in size; also: potency is read from the fitted curve at half-maximal effect
# assaySetup: P450-Glo CYP2C9 enzyme assay, luciferin luminescence; series mostly up to 57.4 µM
# Source text: National Center for Advancing Translational Sciences [NCATS] Assay Overview: Cytochrome P450 (CYP) enzymes are membrane-bound hemeproteins that play a key role in metabolism of drugs and xenobiotics. Assaying the effect of chemicals on CYP isozymes is useful to minimize the adverse drug reactions and toxicities in drug development process. […] The luciferin products formed are detected with a luciferin detection reagent, and the amount of light produced is proportional to CYP activity. […]
Records with an inconclusive call do not appear. Calls of active or inactive are those of the source. The call rests on the fitted dose curve; in most records, active means well fitted inhibition curve with a large enough effect in the repeat runs; inconclusive means weak or mixed curves; inactive means no such curve, though single readings can be large or run the other way.
measuredProperty: Potency

The examples below pair each entry with its known result.
Supply measured Potency of `CCOC(=O)N1CCC(n2c(=O)[nH]c3cc(Cl)ccc32)CC1` in your reply.
11 µM (active)

Supply measured Potency of `CCOC(=O)O[C@]1(C(=O)OCCl)CC[C@H]2[C@@H]3CCC4=CC(=O)C=C[C@]4(C)[C@H]3[C@@H](O)C[C@@]21C` in your reply.
inactive

Supply measured Potency of `COc1cc2c(cc1OC)CN(C(=O)[C@H](C)N[C@@H](CCc1ccccc1)C(=O)O)[C@H](C(=O)O)C2` in your reply.
inactive

Supply measured Potency of `N#Cc1cc(NC(=O)C(=O)O)c(Cl)c(NC(=O)C(=O)O)c1` in your reply.
inactive

Supply measured Potency of `O=C(COCCOCCOCC(=O)Nc1c(I)cc(I)c(C(=O)O)c1I)Nc1c(I)cc(I)c(C(=O)O)c1I` in your reply.
inactive

Supply measured Potency of `COc1ccc(CCC(C)=O)cc1` in your reply.
inactive

Provide Potency values for the following items, in order.
1. CN(C)CCOC(c1ccccc1)c1ccc(Br)cc1 (configuration not stated)
2. CCCCNc1ccc(C(=O)OCCN(CC)CC)cc1
3. Fc1ccc(C(c2ccc(F)cc2)N2CCNCC2)cc1
4. Cc1oc(=O)oc1COC(=O)[C@@H]1N2C(=O)[C@@H](NC(=O)[C@H](N)c3ccccc3)[C@H]2SC1(C)C
5. Nc1ccc2c(c1)CN1C(=O)c3ccccc3C1=N2
6. CC(C(O)c1ccccc1)N(C)CCOC(c1ccccc1)c1ccccc1 (configuration not stated)
7. CC(=O)OC[C@H]1O[C@@H](OC(C)=O)[C@H](OC(C)=O)[C@@H]1OC(C)=O
8. COc1ccc2cc(C=O)ccc2c1

inactive
inactive
inactive
inactive
4.25 µM (active)
13.8 µM (active)
inactive
12.3 µM (active)

----------
# Tested on: CP291
# runDescription: qHTS profiling for inhibitors of Plasmodium falciparum proliferation (AID 504749); also: nearly all actives have a fitted effect of over 60% in size; also: potency is read from the fitted curve at half-maximal effect
# assaySetup: P. falciparum in erythrocytes, SYBR Green DNA, 72 h; series mostly up to 28.7 µM
Results filed as inconclusive are left out. Activity calls are given as the source filed them. Calls come from the whole dose curve; as a rule, active = well fitted inhibition curve with a large enough effect; inconclusive = small, poorly fitted or top-dose-only effect; inactive = flat fitted curve, though single readings scatter.
measuredProperty: Potency

The examples below pair each entry with its known result.
State the measured Potency (CP291) of `CCCCCCCCCCCCCCCC[n+]1ccccc1`
6.01 µM (active)

State the measured Potency (CP291) of `Nc1ncnc2nc[nH]c12`
inactive

State the measured Potency (CP291) of `CN1CCC(Nc2ncc3ncnc(Nc4ccc(F)c(Cl)c4)c3n2)CC1`
15.1 µM (active)

State the measured Potency (CP291) of `O=S(=O)(O)c1ccc2nc(-c3ccccc3)[nH]c2c1`
inactive

Further cases:
State the measured Potency (CP291) of `CCCCCCCCCCCCCCCC[N+](C)(C)Cc1ccccc1`
15.1 µM (active)

----------
# System: DFO2036
# runDescription: qHTS profiling for inhibitors of Plasmodium falciparum proliferation (AID 504749); also: nearly all actives have a fitted effect of over 60% in size; also: potency is read from the fitted curve at half-maximal effect
# assaySetup: P. falciparum in erythrocytes, SYBR Green DNA, 72 h; series mostly up to 28.7 µM
Results filed as inconclusive are left out. The source made the active and inactive calls. Calls follow the shape of the dose curve; as a rule, active = well fitted inhibition curve with a large enough effect; inconclusive = small, poorly fitted or top-dose-only effect; inactive = flat fitted curve, though single readings scatter.
measuredProperty: Potency

The examples below pair each entry with its known result.
Supply measured Potency of `O=C(Nc1ccc(Cl)cc1)Nc1ccc(Cl)c(Cl)c1` in your reply.
2.82 µM (active)

Supply measured Potency of `Nc1ncnc2nc[nH]c12` in your reply.
inactive

Supply measured Potency of `O=S(=O)(O)c1ccc2nc(-c3ccccc3)[nH]c2c1` in your reply.
inactive

Supply measured Potency of `CCCCCCCCCCCCCC[N+](C)(C)C` in your reply.
4.47 µM (active)

Provide Potency values for the following items, in order.
1. Nc1c2ccccc2nc2ccccc12
2. CCCCCCCCCCCCCCCC[n+]1ccccc1

1. 5.01 µM (active)
2. 5.62 µM (active)

----------
# Tested on: MKL-2
# runDescription: qHTS assay to identify novel small-molecules to repurpose for Merkel cell carcinoma treatment (AID 1296009); also: nearly all actives have a fitted effect of over 60% in size
# assaySetup: MCC and control cell lines, CellTiter-Glo viability, 72 h; series mostly up to 46 µM
Records with an inconclusive call do not appear. Calls of active or inactive are those of the source. Calls follow the shape of the dose curve; as a rule, active = well fitted inhibition curve with a large enough effect; inconclusive = small, poorly fitted or top-dose-only effect; inactive = flat fitted curve, though single readings scatter.
// classify into active, inactive

Some solved cases for reference:
For this compound, state the assay outcome: CC1(C)S[C@@H]2[C@H](NC(=O)C(c3ccccc3)S(=O)(=O)O)C(=O)N2[C@H]1C(=O)O (stereo not given in full)
inactive

For this compound, state the assay outcome: `CO/N=C(/C(=O)N[C@@H]1C(=O)N2C(C(=O)O)=C(Cn3nnc(C)n3)CS[C@H]12)c1csc(N)n1`
inactive

For this compound, state the assay outcome: CC(NCCC(c1ccccc1)c1ccccc1)c1ccccc1 (stereo not given)
active

For this compound, state the assay outcome: Cn1cc(S(C)=O)c(=O)c2ccc(F)cc21 (stereo not given)
inactive

For this compound, state the assay outcome: `CN(C)CCN1CCN(c2cccc(Cl)c2)C1=O`
inactive

For this compound, state the assay outcome: `CC(C)=CCNc1ncnc2c1ncn2[C@@H]1O[C@H](CO)[C@@H](O)[C@H]1O`
active

For this compound, state the assay outcome: `N[C@@H](Cc1cc(I)c(O)c(I)c1)C(=O)O`
inactive

For this compound, state the assay outcome: `O=C(CCCCCCCCC#CI)Oc1ccccc1`
active

For this compound, state the assay outcome: `COc1cc2c(cc1OC)CN(C(=O)[C@H](C)N[C@@H](CCc1ccccc1)C(=O)O)[C@H](C(=O)O)C2`
inactive

Shift focus to the following entry.
For this compound, state the assay outcome: `CC[C@@]1(O)C(=O)OCc2c1cc1n(c2=O)Cc2c-1nc1ccccc1c2/C=N/OC(C)(C)C`
active

----------
# runDescription: qHTS assay for environmental chemicals that activate the Aryl hydrocarbon Receptor (AhR) signaling pathway (AID 651777); also: % of control where 0% means no effect; nearly all actives have a fitted effect of over 15% in size
# assaySetup: 1A2-DRE human hepatoma cells, luciferase, 24 h; hits give high values
Results filed as inconclusive are left out.
measuredProperty: activation (%)
Numbers only, in %.

The examples below pair each entry with its known result.
Supply measured activation of `CCN(CC)CCOc1ccc(/C(=C(\Cl)c2ccccc2)c2ccccc2)cc1` in your reply.
-0.728

Supply measured activation of `OCc1c[nH]c2ccccc12` in your reply.
2.25

Provide activation values for the following items, in order.
1. CCCCCCCCCCCC[N+](C)(C)Cc1ccccc1
2. Cc1ncc(CO)c(CO)c1O

-1.52
-1.88

Provide activation values for the following items, in order.
1. CN1C(=O)c2ccccc2C1=O
2. O=C(NO)c1ccccc1
3. C1=CC2C3C=CC(C3)C2C1 (configuration not stated)

1: 1.05; 2: -0.612; 3: 0.971

----------
# runDescription: Drug repurposing screens with cells derived from glioblastoma tumor samples (AID 1345199); also: potency is read from the fitted curve at half-maximal effect; nearly all actives have a fitted effect of over 40% in size
# assaySetup: GBM patient neurospheres viability, ATP luminescence, 48 h; tumour line A
Inconclusive results are not listed. Active and inactive are the calls of the source. The call rests on the fitted dose curve; in most records, active means well fitted inhibition curve with a large enough effect; inconclusive means small, poorly fitted or top-dose-only effect; inactive means flat fitted curve, though single readings scatter.
Kindly supply the reported Potency values for the records listed here.

Supply measured Potency of `CCNC(=O)NCCCOc1cccc(CN2CCCCC2)c1` in your reply.
17.8 µM (active)

Supply measured Potency of `Cc1cccc(C)c1NC(=O)c1cc(S(N)(=O)=O)c(Cl)cc1O` in your reply.
35.5 µM (active)

Supply measured Potency of `O=C(O)CCCC[C@@H]1SC[C@@H]2NC(=O)N[C@@H]21` in your reply.
17.8 µM (active)

Supply measured Potency of `CC(=O)Oc1ccc(C2(c3ccc(OC(C)=O)cc3)Oc3ccccc3NC2=O)cc1` in your reply.
22.4 µM (active)

Supply measured Potency of `C=CC[N+]1([C@H]2C[C@H]3[C@@H]4CC[C@H]5C[C@H](OC(C)=O)[C@@H](N6CCCCC6)C[C@]5(C)[C@H]4CC[C@]3(C)[C@H]2OC(=O)CC)CCCCC1` in your reply.
6.31 µM (active)

Now examine the next entry.
Supply measured Potency of `Nc1cccc2c(N)cccc12` in your reply.
15.8 µM (active)
